This collection of values is drawn from patent EP0041488A1.

test system: central 5-HT receptors; assay: In-vivo determination of rat brain tryptophan hydroxylation (5-HTP formation) after reserpine pretreatment; conditions: s.c.; reserpine-pretreated rats; dose giving 70 % of the control 5-HTP level; similar values for limbic forebrain, striatum and hemispheral portions
Parameter Measured: "ED70%" for 5-HTP reduction (µmol/kg)
Number in µmol/kg, nothing else.

[Q] Return reported "ED70%" for 5-HTP reduction; argument: Br.CCCN(CCC)C1CCc2cccc(O)c2C1 (stereo not drawn) [Compound 20]
[A] 0.06

[Q] Likewise for CCCCCCCCNC1CCc2cccc(O)c2C1 (stereo not drawn) [Compound 18] ?
[A] 50

[Q] And what about the compound CCCCN(CCCC)C1CCc2cccc(O)c2C1 (stereo not drawn) [Compound 22] ?
[A] 8

[Q] Also need CCCCN(CCCC)C1CCc2cccc(OC)c2C1 (stereo not drawn) [Compound 10] , thanks.
[A] 25

[Q] What about this compound? CCCCN(CCC)C1CCc2cccc(O)c2C1 (stereo not drawn) [Compound 21]
[A] 0.5

[Q] Follow-up entry: CCCN(CC)C1CCc2cccc(O)c2C1 (stereo not drawn) [Compound 19]
[A] 0.09

[Q] Please answer likewise for CCCNC1CCc2cccc(O)c2C1 (stereo not drawn) [Compound 15]
[A] 0.4

[Q] Same question, CC(C)NC1CCc2cccc(O)c2C1 (stereo not drawn) [Compound 17] this time
[A] 8

[Q] How about CCCCNC1CCc2cccc(O)c2C1 (stereo not drawn) [Compound 16] ?
[A] 6

[Q] Item: CCCN(CCC)C1CCc2cccc(OC)c2C1 (racemic) [Compound 8, 2-(di-n-propylamino)-8-methoxytetralin]
[A] 0.4

[Q] Then what about the compound CCCN(Cc1ccccc1)C1CCc2cccc(O)c2C1 (stereo not drawn) [Compound 23] ?
[A] 3
